Tested on: green foxtail (Setaria viridis)
Assay: Test E pre-/postemergence greenhouse test, plant response rating 0-100
Assay type: in vivo
Settings: Preemergence, 500 g ai/ha, scale 0 to 100
measuredEndpoint: Foxtail, Green plant response rating
// return a plain number; no unit text

O=C(c1ccccc1)c1cn(S(=O)(=O)CC(F)(F)F)nc1-c1cc(Cl)cc(Cl)c1 0

stdin: I am curious: what Foxtail, Green plant response rating value has been reported for O=C(c1ccccc1)c1cn(S(=O)(=O)C(F)(F)F)nc1-c1cc(Cl)cc(Cl)c1 ?
stdout: 0

stdin: Could you share which Foxtail, Green plant response rating value was measured for O=C(c1ccccc1)c1cn(S(=O)(=O)CCl)nc1-c1cc(Cl)cc(Cl)c1 ?
stdout: 15

stdin: Entry under review: C#CCn1cc(C(=O)c2ccccc2)c(-c2cc(Cl)cc(Cl)c2)n1 . Reported Foxtail, Green plant response rating?
stdout: 0
